- System: K-562 leukemia
- procedureText: NCI-60 one-dose screen, 48 h (100 = growth as untreated, 0 = no growth, -100 = all killed)
- conditions: 10 µM unless noted
This is part of a sample that, as a whole, favours compounds with a hit. Of some 83,000 tested, about 20% had one in any assay.
Could you please mark yes (1) for values of growth below 20% and no (0) for values at or above it?

Determine whether this compound shows growth lower than 20% (ties excluded): `Cc1ccc(-c2nc(C#N)c(S(=O)(=O)n3nc(-c4ccccc4)cc3N)o2)cc1`
yes (1)

Item `COc1ccc(-c2ccc(-c3ccc(C(=N)N)cn3)s2)cc1OC` : growth beneath 20%, strictly?
no (0)

Field: below-cutoff. Rule: recorded growth strictly less than 20%. Subject: `O=C(Nc1ccncc1)C(=O)c1cn(S(=O)(=O)c2ccc(Br)cc2)c2ccccc12`
no (0)

Say whether its growth is strictly beneath 20%. Entry: `Cc1ccc(S(=O)(=O)NCCCNc2cc(-c3cn(C(C)(C)C)nc3-c3cccc(O)c3)ccn2)cc1`
yes (1)

Here's an entry: `Cc1ccc(S(=O)(=O)n2cc(C(=O)C(=O)N3CCOCC3)c3ccccc32)cc1` . Is its growth below 20%?
no (0)

Is 20% strictly greater than the compound's reported growth? compound: `Nc1cccc(-c2nc3sccn3c2-c2ccnc(NCCNS(=O)(=O)c3ccc(C(F)(F)F)cc3)n2)c1`
no (0)

Find out if reported growth for `COc1ccc2c(c1)[nH]c(=O)c1c3cccc(F)c3cn21` is less than 20%
no (0)

Item `CC(C)(C)n1cc(-c2ccnc(NCCNS(=O)(=O)c3ccc(F)cc3)c2)c(-c2cccc(O)c2)n1` : growth beneath 20%, strictly?
yes (1)

Determine if `COc1cc(Cn2cc3c(c2)-c2oncc2CC3)cc(OC)c1OC` shows growth strictly lower than 20%.
yes (1)

Say whether its growth is strictly beneath 20%. Entry: `O=S(=O)(CC(O)(c1ccccc1)c1ccccc1)CC(O)(c1ccccc1)c1ccccc1`
no (0)

Threshold test, growth < 20%: `COc1ccc(Nc2[nH]n3c(=O)cc(-c4ccccc4)nc3c2C(=O)Nc2ccc(C)cc2)c(OC)c1`
no (0)

Is 20% strictly greater than the compound's reported growth? compound: `O=C(N/N=C/C=C\c1ccccc1)C(=O)N/N=C/C=C/c1ccccc1`
no (0)

Just wondering, is growth of `CCOC(=O)/C(C#N)=C1/C(=O)Nc2ccccc21` below 20%?
no (0)

Below 20% on growth? Entry `COc1ccc(-c2nc(/C=N/Nc3cc(C)nc4ccc(Cl)cc34)c(C)o2)cc1`
yes (1)

Quick check: growth of COc1cc(C2C3=C(COC3=O)Nc3cc4c(cc32)OCO4)cc2c1OCO2 (centres undefined) under 20%?
yes (1)

Say whether its growth is strictly beneath 20%. Entry: `COc1cc(/C=C/C(=O)N2CCN(C(=O)/C=C/c3cc(OC)c(OC)c(OC)c3)CC2)cc(OC)c1OC`
no (0)

Field: below-cutoff. Rule: recorded growth strictly less than 20%. Subject: `C=C(C)[C@@H]1CC[C@]2(C(=O)O)CC[C@]3(C)[C@H](CC[C@@H]4[C@@]5(C)C[C@@H](CC#Cc6ccc(C(F)(F)F)cc6)[C@H](O)C(C)(C)[C@@H]5CC[C@]43C)[C@@H]12`
yes (1)

growth under 20%? Item: `S=c1[nH]nc(-c2cc3ccc2CCc2ccc(cc2)CC3)n1C1CC1`
no (0)

Please let me know if `Cc1cc(N/N=C/c2nc(-c3ccccc3)oc2C)c2cc(Cl)ccc2n1` shows growth below 20%.
yes (1)
